Assay: reversal of MRP1-mediated doxorubicin resistance, pilot screen, H69AR cells, doxorubicin co-treatment (AID 601)
Settings: H69AR cells + 2 uM doxorubicin, CellTiter-Glo, 72 h; at 10 µM; stronger effect = higher value
Attribute measured: differential viability (reversal) (%)
Reply numerically in %, unit not repeated.

Molecule: Cc1nc2ccccc2c(=O)n1NC(=O)Nc1ccccc1
differential viability (reversal) (%): 10.6
--
Molecule: Cn1c(=O)c2[nH]cnc2n(C)c1=O
differential viability (reversal) (%): 5.22
--
Molecule: CCOC(=O)CSc1nnc(-c2ccc(Cl)cc2Cl)o1
differential viability (reversal) (%): 3.39
--
Molecule: O=C(CN(Cc1ccco1)C(=O)c1cc(=O)[nH]c2ccccc12)Nc1ccccc1Br
differential viability (reversal) (%): 9.09
--
Molecule: COc1ccccc1N1CCN(C(=O)CN(Cc2ccc(Cl)cc2)S(C)(=O)=O)CC1
differential viability (reversal) (%): 4.09
--
Molecule: CCN(CC)C(=O)C1=C(C)NC(=O)NC1c1c(F)cccc1Cl (stereo not drawn)
differential viability (reversal) (%): 13.7
--
Molecule: Nc1nnc(SCC(=O)N2CCN(c3ccccc3)CC2)n1-c1ccccc1
differential viability (reversal) (%): 7.97
--
Molecule: CC1(C)CC(=O)C2=C(C1)N(CC1CCCO1)C(=O)C2(O)C(F)(F)F (stereo not drawn)
differential viability (reversal) (%): 3.08
--
Molecule: Cc1ccc(NC(=O)CSc2nnc(-c3ccccn3)n2C)cc1
differential viability (reversal) (%): -0.845
--
Molecule: Nc1nnc(SCc2cc3c(cc2Cl)OCO3)s1
differential viability (reversal) (%): 14.4

INPUT: Kindly indicate its recorded differential viability (reversal). Item: COc1cccc(CC(NC(C)=O)C(=O)NC2CCN(c3c4c(nc5ncnn35)CCC4)CC2)c1 (stereo not drawn)
OUTPUT: 8.17

INPUT: Kindly indicate its recorded differential viability (reversal). Item: CCOc1ccc2nc(NC(=O)C(NS(=O)(=O)c3cccs3)C(C)C)sc2c1 (stereo not drawn)
OUTPUT: 11.7

INPUT: Kindly indicate its recorded differential viability (reversal). Item: `O=C(c1csc2ccccc12)N1CCCCCC1`
OUTPUT: 9.99

INPUT: Kindly indicate its recorded differential viability (reversal). Item: `Cc1ccc2[nH]c3c(c2c1)CN(C(=O)CN1CCN(c2cccc(C)c2C)CC1)CC3`
OUTPUT: -6.55

INPUT: Kindly indicate its recorded differential viability (reversal). Item: `CCOC(=O)c1cnn(-c2ncnc3c2cnn3Cc2ccccc2)c1N`
OUTPUT: -14.3

INPUT: Kindly indicate its recorded differential viability (reversal). Item: CCOC(=O)C1CCCn2c1nc1sc3c(c1c2=O)CCCC3 (stereo not drawn)
OUTPUT: -9.13

INPUT: Kindly indicate its recorded differential viability (reversal). Item: `CN(C)c1nc(OCCOC(=O)Nc2ccc(Cl)cc2Cl)nc(N(C)C)n1`
OUTPUT: 16.4

INPUT: Kindly indicate its recorded differential viability (reversal). Item: CC1CN(C(=O)CSc2nnc(-c3ccc(Cl)cc3)n2C)CC(C)O1 (stereo not drawn)
OUTPUT: 5.23

----------
Experiment: HUVEC growth inhibition – cell-based, human, primary screen (AID 575);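 further: 100% = median of untreated cell wells with 0.1% DMSO on each plate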
Details: HUVEC proliferation, CellTiter-Glo luminescence, 72 h; at 10 µM; stronger effect = lower value
Attribute measured: viability (%)
Reply numerically in %, unit not repeated.

Compound: O=C(NCC(=O)N(c1cccnc1)C(C(=O)NC1CCCCC1)c1cccnc1)c1ccco1 (stereo not given)
viability (%): 113

Compound: O=C(Nc1ccc(N2CCOCC2)cc1)Nc1ccc2nc(-c3ccco3)c(-c3ccco3)nc2c1
viability (%): 16.6

Compound: CCOC(=O)C1CCN(CC(=O)c2c(C)[nH]c3ccccc23)CC1
viability (%): 112

Compound: O=C1C2CC=C(Cl)CC2C(=O)N1CNc1ccccn1 (stereo not given)
viability (%): 108

Compound: Cc1ccc(S(=O)(=O)N2CCN(c3nc(C(C)C)c4c(c3C#N)CC(C)(C)OC4)CC2)cc1
viability (%): 111

INPUT: Kindly indicate its recorded viability. Item: `COc1ccc(-c2noc(CCC(=O)NCCCN3CCC(Cc4ccccc4)CC3)n2)cc1`
OUTPUT: 33.1

INPUT: Kindly indicate its recorded viability. Item: CC1CC(=O)c2cnc(NCC3CCCO3)nc2C1 (stereo not given)
OUTPUT: 103

INPUT: Kindly indicate its recorded viability. Item: `COc1ccc(-c2noc(-c3ccccc3C(=O)Nc3cccnc3)n2)cc1`
OUTPUT: 106

INPUT: Kindly indicate its recorded viability. Item: `CN1CCN(CCCN2c3ccccc3Sc3ccc(C(F)(F)F)cc32)CC1`
OUTPUT: 2.21

INPUT: Kindly indicate its recorded viability. Item: `O=S1(=O)Nc2c(ccc3cccnc23)-c2ccccc21`
OUTPUT: 8.06

----------
Test: reversal of MRP1-mediated doxorubicin resistance, pilot screen, H69AR cells, doxorubicin co-treatment (AID 601)
Settings: H69AR cells, CellTiter-Glo, 72 h; compound alone cytotoxicity; at 10 µM
Attribute measured: viability (%)
Reply numerically in %, unit not repeated.

Observe how each entry below is paired with its result.
Compound: O=C(NC1CC1)C1CCC(=O)N1C1CCCC1 (stereo not given)
Result units: %
viability: 105

Compound: COc1cccc(C(=O)CSc2nnc(COc3cccc4cccnc34)o2)c1
Result units: %
viability: 81

Compound: O=C(c1cccnc1)N1CCN(C(=O)c2ccccc2F)CC1
Result units: %
viability: 97.2

Compound: COC(=O)[C@H](CCSC)NC(=O)Nc1cc(C)ccc1C
Result units: %
viability: 82.2

Compound: Cc1ccc(C2C(C(=O)c3sc(C)nc3C)=C(O)C(=O)N2CCN(C)C)o1 (stereo not given)
Result units: %
viability: 103

Compound: CC(=O)OCC(=O)[C@H]1CC[C@H]2[C@@H]3CCC4=CC(=O)CC[C@]4(C)[C@H]3CC[C@]12C
Result units: %
viability: 102

Compound: CCOc1ccc(C2C(C(=O)OC)=CN(CCOC)C=C2C(=O)OC)cc1
Result units: %
viability: 97.3

Compound: Cn1c(CN2CCOCC2)nnc1SCC(=O)NCCc1ccccc1
Result units: %
viability: 91.8

Compound: CCCC(=O)Nc1ccccc1NC(=O)CN(C)S(=O)(=O)c1ccc(C)cc1
Result units: %
viability: 98.9

Compound: CC1CN(C(=O)CSc2ncnc3sccc23)CC(C)O1 (stereo not given)
Result units: %
viability: 99.6

INPUT: Kindly indicate its recorded viability. Item: COc1cccc(CC(NC(C)=O)C(=O)NC2CCN(c3c4c(nc5ncnn35)CCC4)CC2)c1 (stereo not given)
OUTPUT: 96.1

INPUT: Kindly indicate its recorded viability. Item: CN1CCN(CC#CCC(O)(c2ccccc2)C2CCCC2)CC1 (stereo not given)
OUTPUT: 91.7

INPUT: Kindly indicate its recorded viability. Item: `CNC(=O)c1ccc2nc(NC(C)=O)sc2c1`
OUTPUT: 99.9

INPUT: Kindly indicate its recorded viability. Item: COCc1nnc(SCC(=O)NC(C)c2ccccc2)n1-c1ccccc1 (stereo not given)
OUTPUT: 100

INPUT: Kindly indicate its recorded viability. Item: `CCOC(=O)N1CCC(NC(=O)Cn2ncc3c4ccccc4n(C)c3c2=O)CC1`
OUTPUT: 97.5

INPUT: Kindly indicate its recorded viability. Item: `CCOC(=O)c1[nH]c2ccc(C)cc2c1NC(=O)CN1CCCCC1`
OUTPUT: 87.8

INPUT: Kindly indicate its recorded viability. Item: `Cn1c(=O)cc(OCC(=O)NCCCN2CCN(Cc3ccccc3)CC2)c2ccccc21`
OUTPUT: 103

INPUT: Kindly indicate its recorded viability. Item: CCN(CC)CCCNC1CCS(=O)(=O)C1 (stereo not given)
OUTPUT: 87.9

----------
Test: growth inhibitors of H69AR lung tumor, primary screen, human, duplicate replicates (AID 580);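 further: 100% = mean luminescence of untreated wells and 0% = no signal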
Conditions: H69AR lung tumor cells viability, ATP luminescence, 72 h; at 10 µM; stronger effect = lower value
A collection of compounds and their measured viability
Reply numerically in %, unit not repeated.

Observe how each entry below is paired with its result.
Compound: COc1cccc(/C(O)=C2/C(=O)C(=O)N(CCN3CCOCC3)C2c2cccnc2)c1 (stereo unspecified)
Result units: %
viability: 93.6

Compound: COC(=O)C1(C)NC(c2cccs2)C2C(=O)N(c3ccccc3F)C(=O)C21 (stereo unspecified)
Result units: %
viability: 99.3

INPUT: Kindly indicate its recorded viability. Item: `CC(C)(C)NS(=O)(=O)c1ccc(CCC(=O)O)cc1`
OUTPUT: 94.8

INPUT: Kindly indicate its recorded viability. Item: `Cc1nc(NCc2ccccn2)c2ccccc2n1`
OUTPUT: 104

INPUT: Kindly indicate its recorded viability. Item: Cc1ccc(C)c(C(=O)CC2(O)C(=O)Nc3ccccc32)c1 (stereo unspecified)
OUTPUT: 105

INPUT: Kindly indicate its recorded viability. Item: `COc1cccc(OCC(=O)Nc2ccccc2C(N)=O)c1`
OUTPUT: 97
